method_notes: Acute oral toxicity in SD rats
Format: in vivo
test_conditions: rat, in vivo, po, rats, male
Procedure: Meanwhile, the toxicity of the compounds of the present invention was mvestigated as follows: i.e., the compounds were suspended into propylene glycol and then orally administered into each of 5 male and female SD rats at the age of 5-weeks that were fasted for 12 hours. Under the usual breeding conditions, general symptoms, weight change and lethal case of the above rats were monitored for two weeks. At the dose over 2,000 mg/kg of the compound nos. […]
reported_property: LD50 at 336 h

1) CCC1=C2c3cc(OC)c(OC)cc3CCN2Cc2c1ccc(OC)c2OC [Compound No. 46, 13-Ethyldihydropalmatine] :: > 3000 mg/kg
2) CCc1c2[n+](cc3c(OC)c(OC)ccc13)CCc1cc(OC)c(OC)cc1-2 :: > 925 mg/kg
3) CCOc1cc2c(cc1OCC)-c1c(CC)c3ccc(OCC)c(OCC)c3c[n+]1CC2 :: > 5000 mg/kg

Incoming: Would you mind telling me what LD50 at 336 h value was observed for CCC1=C2c3cc(OC)c(OC)cc3CCN2C(CC(C)=O)c2c1ccc(OC)c2OC (stereo not shown) [Compound No. 37, 8-Acetonyl-13-ethyldihydropalmatine] ?
Outgoing: > 2500 mg/kg

###

Quick reference for HDL cholesterol among some compounds
System: Syrian Golden Hamster
method_notes: In vivo effect on plasma lipids and glucose in Syrian Golden Hamster
test_conditions: normal diet + 6.0 mg/kg/day, oral, 14 days, hamster plasma
Just the number please, in mg/dL, no unit attached.

Please review the following examples before continuing.
1) CCc1c2[n+](cc3c(OC)c(OC)ccc13)CCc1cc(OC)c(OC)cc1-2 :: 47.5
2) CCC1=C2c3cc(OC)c(OC)cc3CCN2C(CC(C)=O)c2c1ccc(OC)c2OC (centres unmarked) [Compound No. 37, 8-Acetonyl-13-ethyldihydropalmatine] :: 54.2
3) CC[C@H](C)C(=O)O[C@H]1C[C@@H](C)C=C2C=C[C@H](C)[C@H](CC[C@@H]3C[C@@H](O)CC(=O)O3)[C@H]21 [lovastatin, reference compound] :: 51.4
4) CCOc1cc2c(cc1OCC)-c1c(CC)c3ccc(OCC)c(OCC)c3c[n+]1CC2 :: 51.1

From here, focus on the item given below.
Incoming: Would you mind telling me what HDL cholesterol value was observed for CCC1=C2c3cc(OC)c(OC)cc3CCN2Cc2c1ccc(OC)c2OC [Compound No. 46, 13-Ethyldihydropalmatine] ?
Outgoing: 49.2

###

System: Syrian Golden Hamster
method_notes: In vivo effect on plasma lipids and glucose in Syrian Golden Hamster
test_conditions: normal diet + 6.0 mg/kg/day, oral, 14 days, hamster plasma
Protocol: In order to investigate the effect of the compound of formula (1) of the invention, the compound was orally administered into male Syrian Golden Hamsters having weights of 90~110 g and then blood was taken from each animal. Plasma lipids, i.e., total cholesterol, LDL-cholesterol, HDL-cholesterol and triglycerides were analyzed using an automatic analyzer (Automatic analyzer model Hitachi 7150). […]
Quick reference for LDL cholesterol among some molecules
Just the number please, in mg/dL, no unit attached.

1. CCc1c2[n+](cc3c(OC)c(OC)ccc13)CCc1cc(OC)c(OC)cc1-2 [Compound No. 8, 13-Ethylpalmatine] :: 24.5
2. CCC1=C2c3cc(OC)c(OC)cc3CCN2C(CC(C)=O)c2c1ccc(OC)c2OC (centres unmarked) [Compound No. 37, 8-Acetonyl-13-ethyldihydropalmatine] :: 20.2
3. CC[C@H](C)C(=O)O[C@H]1C[C@@H](C)C=C2C=C[C@H](C)[C@H](CC[C@@H]3C[C@@H](O)CC(=O)O3)[C@H]21 [lovastatin, reference compound] :: 29.9

Incoming: Would you mind telling me what LDL cholesterol value was observed for CCOc1cc2c(cc1OCC)-c1c(CC)c3ccc(OCC)c(OCC)c3c[n+]1CC2 [Compound No. 5, 2,3,9,10-Tetraethoxy-13-ethylberberine] ?
Outgoing: 24.9

Incoming: Would you mind telling me what LDL cholesterol value was observed for CCC1=C2c3cc(OC)c(OC)cc3CCN2Cc2c1ccc(OC)c2OC [Compound No. 46, 13-Ethyldihydropalmatine] ?
Outgoing: 20.8
